Measured values drawn from ChEMBL document CHEMBL1148439 for this set.

system: Human immunodeficiency virus type 1 protease (Human immunodeficiency virus 1, UniProt Q72874, V82A)
method description: Tested for inhibitor binding of Val82Ala mutant of HIV PR
value type: Ki (nM)

entry_smiles=NC(=O)[C@H](CCC(=O)O)NC(=O)[C@H](CCC(=O)O)NC(=O)[C@H](Cc1ccccc1)NC(=O)[C@H](O)[C@H](Cc1ccccc1)NC(=O)OCc1ccccc1 recorded_value=0.11
